details: in acetone, 317.11 K
Property label: solubility (mole fraction)
The answer should be written as a number, with no unit following it.

Record `O=C(O)c1cccnc1` . Reported solubility (mole fraction): 0.00318

* * *

settings: in water, 283.59 K
Property label: solubility (mole fraction)
The answer should be written as a number, with no unit following it.

Record `O=C(O)c1cccnc1` . Reported solubility (mole fraction): 0.00172

* * *

conditions: in DMSO, 303.38 K
Property label: solubility (mole fraction)
The answer should be written as a number, with no unit following it.

Record `O=C(O)c1cccnc1` . Reported solubility (mole fraction): 0.074

* * *

details: in acetone, 296.8 K
Property label: solubility (mole fraction)
The answer should be written as a number, with no unit following it.

Record `O=C(O)c1cccnc1` . Reported solubility (mole fraction): 0.00137
